Record form. Attribute: CHOLESTEROL. Fill in for each entry.
# Species: Rattus norvegicus
# protocol.summary: DrugMatrix - Regimen: Daily Repeat
# Format: toxicity, organism-based, Sprague-Dawley
# Parameters: regimen Daily Repeat, gender Male, age 6-8 weeks
# experimental.setup: in vivo, po, 0 mg/kg, 120 h, tissue Plasma, route oral GAVAGE, dose level Control, time 5 day, vehicle .5 % CMC
Report as a plain number; the unit mg/dL is understood.

Incoming: Identify measured CHOLESTEROL corresponding to CCCCC1C(=O)N(c2ccccc2)N(c2ccccc2)C1=O
Outgoing: 63.83

Incoming: Identify measured CHOLESTEROL corresponding to CO[C@H]1C[C@@H]2CC[C@@H](C)[C@@](O)(O2)C(=O)C(=O)N2CCCC[C@H]2C(=O)O[C@H]([C@H](C)C[C@@H]2CC[C@@H](O)[C@H](OC)C2)CC(=O)[C@H](C)/C=C(\C)[C@@H](O)[C@@H](OC)C(=O)[C@H](C)C[C@H](C)/C=C/C=C/C=C/1C
Outgoing: 69.83

Incoming: Identify measured CHOLESTEROL corresponding to C[C@]12C/C(=C/O)C(=O)C[C@@H]1CC[C@@H]1[C@@H]2CC[C@@]2(C)[C@H]1CC[C@]2(C)O
Outgoing: 61

Incoming: Identify measured CHOLESTEROL corresponding to CC[C@]1(O)CC[C@H]2[C@@H]3CCC4=CCCC[C@@H]4[C@H]3CC[C@@]21C
Outgoing: 72.83

Incoming: Identify measured CHOLESTEROL corresponding to CC(C(=O)O)c1ccc(-c2ccccc2)c(F)c1 (configuration not stated)
Outgoing: 71.33

Incoming: Identify measured CHOLESTEROL corresponding to CCOC(=O)[C@H](CCc1ccccc1)N[C@@H](C)C(=O)N1Cc2ccccc2C[C@H]1C(=O)O
Outgoing: 71.33

Incoming: Identify measured CHOLESTEROL corresponding to CC(=O)O[C@]1(C(C)=O)CC[C@H]2[C@@H]3C=C(Cl)C4=CC(=O)[C@@H]5C[C@@H]5[C@]4(C)[C@H]3CC[C@@]21C [CYPROTERONE ACETATE]
Outgoing: 71.33

----------
Record form. Attribute: POTASSIUM. Fill in for each entry.
# Species on record: Rattus norvegicus
# protocol.summary: DrugMatrix - Regimen: Daily Repeat
# Type: toxicity, organism-based, Sprague-Dawley
# Design: regimen Daily Repeat, gender Male, age 6-8 weeks
# experimental.setup: in vivo, po, 1500 mg/kg, 120 h, tissue Plasma, route oral GAVAGE, dose level High, time 5 day, vehicle .5 % CMC
Report as a plain number; the unit MEQ/L is understood.

Incoming: Identify measured POTASSIUM corresponding to O=c1cc(-c2ccccc2)oc2ccc3ccccc3c12 [BETA-NAPHTHOFLAVONE]
Outgoing: 6.73

Incoming: Identify measured POTASSIUM corresponding to C[C@@H](O)[C@H]1C(=O)N2C(C(=O)O)=C(S[C@@H]3CN[C@H](C(=O)N(C)C)C3)[C@H](C)[C@H]12 [MEROPENEM]
Outgoing: 6.59

Incoming: Identify measured POTASSIUM corresponding to CC(C)(Sc1cc(C(C)(C)C)c(O)c(C(C)(C)C)c1)Sc1cc(C(C)(C)C)c(O)c(C(C)(C)C)c1 [PROBUCOL]
Outgoing: 6.79

Incoming: Identify measured POTASSIUM corresponding to Nc1nc2c(c(=O)[nH]1)N(C=O)C(CNc1ccc(C(=O)N[C@@H](CCC(=O)O)C(=O)O)cc1)CN2 (stereo not given in full) [LEUCOVORIN]
Outgoing: 6.55

Incoming: Identify measured POTASSIUM corresponding to CCOC(=O)[C@H](CCc1ccccc1)N[C@@H](C)C(=O)N1CCC[C@H]1C(=O)O
Outgoing: 9.54
